meta.source: the supplement of paper PMC8975748

tested on: Saccharomyces cerevisiae BY4741 SeMeCo community; assay: z-score of subpopulation abundance vs DMSO median, subpopulation auxotrophic for HLUM; higher = larger share of this subpopulation than in DMSO controls; conditions: 10 µM; 24 h; SM minimal medium; subpopulation (auxotrophy): HLUM
Where a name gives a salt, the structure may show the parent alone.
outcomeMeasure: z-score of subpopulation abundance
Write no unit; give the number alone.

Asked: May I ask what z-score of subpopulation abundance has been recorded for NCc1ccccc1CC(=O)N[C@@H]1C(=O)N2C(C(=O)O)=C(CSc3nnnn3CC(=O)O)CS[C@H]12 [Ceforanide] ?
Given back: 1.14

Asked: What about CC(C)(C)CC(C)(C)c1ccc(OCCOCC[N+](C)(C)Cc2ccccc2)cc1 [Benzethonium Chloride] ?
Given back: 0.07

Asked: What about CCN(CC)C(=O)N1CCN(C)CC1 [Diethylcarbamazine citrate] ?
Given back: -0.66

Asked: What about CO/N=C(\C(=O)N[C@@H]1C(=O)N2C(C(=O)OC(C)OC(C)=O)=C(COC(N)=O)CS[C@H]12)c1ccco1 (some centres undefined) [Cefuroxime axetil] ?
Given back: 0.39

Asked: What about CCCCCCCCCCCC(=O)O [Lauric Acid] ?
Given back: -0.48

Asked: What about Clc1ccc(COC(Cn2ccnc2)c2ccc(Cl)cc2Cl)cc1 (centres undefined) [Econazole nitrate] ?
Given back: 9.87

Asked: What about C=C[C@]1(C)C[C@@H](OC(=O)CS[C@@H]2C[C@H]3CC[C@@H](C2)N3C)[C@]2(C)[C@H](C)CC[C@]3(CCC(=O)[C@H]32)[C@@H](C)[C@@H]1O [Retapamulin] ?
Given back: 0.65

Asked: What about CCOC(=O)OC(C)OC1=C(C(=O)Nc2ccccn2)N(C)S(=O)(=O)c2ccccc21 (centres undefined) [Ampiroxicam] ?
Given back: -0.78

Asked: What about OC(CCCN1CCCCC1)(c1ccccc1)c1ccccc1 [Diphenidol HCl] ?
Given back: -0.39

Asked: What about CN(C)CCC=C1c2ccccc2C(C)(C)c2ccccc21 [Melitracen hydrochloride] ?
Given back: -0.56

Asked: What about Nc1nc(/C(=C/CC(=O)O)C(=O)N[C@@H]2C(=O)N3C(C(=O)O)=CCS[C@H]23)cs1 [Ceftibuten dihydrate] ?
Given back: 0.51

Asked: What about CO/N=C(\C(=O)N[C@@H]1C(=O)N2C(C(=O)O)=C(CSc3nc(C)c(CC(=O)O)s3)CS[C@H]12)c1csc(N)n1 [Cefodizime Sodium] ?
Given back: -0.81

Asked: What about O=C(O)CCCCCCCC(=O)O [Azelaic acid] ?
Given back: 1.13

Asked: What about CN1C2CCC1CC(OC(=O)C(O)c1ccccc1)C2 (centres undefined) [Homatropine Bromide] ?
Given back: 0.14

Asked: What about OC(c1ccccc1)(c1ccccc1)C12CC[N+](CCOCc3ccccc3)(CC1)CC2 [Umeclidinium bromide] ?
Given back: -0.28

Asked: What about CC1(C)S[C@@H]2[C@H](NC(=O)[C@H](N)c3ccc(O)cc3)C(=O)N2[C@H]1C(=O)O [Amoxicillin] ?
Given back: 0.49

Asked: What about C[C@@H]1[C@H](O)[C@@H](C)/C=C/C=C/C=C/C=C/C=C/C=C/C=C/[C@H](O[C@@H]2O[C@H](C)[C@@H](O)[C@H](N)[C@@H]2O)C[C@@H]2O[C@](O)(C[C@@H](O)C[C@@H](O)[C@H](O)CC[C@@H](O)C[C@@H](O)CC(=O)O[C@H]1C)C[C@H](O)[C@H]2C(=O)O [Amphotericin B] ?
Given back: 163

Asked: What about C1N2CN3CN1CN(C2)C3 [Methenamine] ?
Given back: -0.16

Asked: What about O=C(O)C[C@H](O)C[C@H](O)/C=C/c1c(C2CC2)nc2ccccc2c1-c1ccc(F)cc1 [Pitavastatin Calcium] ?
Given back: 1.55

Asked: What about CO[C@@H]1[C@@H](OC(N)=O)[C@@H](O)[C@H](Oc2ccc3c(O)c(NC(=O)c4ccc(O)c(CC=C(C)C)c4)c(=O)oc3c2C)OC1(C)C [Novobiocin Sodium] ?
Given back: 0.56

Asked: What about C[C@@H](O)[C@H]1C(=O)N2C(C(=O)O)=C(S[C@@H]3CN[C@H](C(=O)N(C)C)C3)[C@H](C)[C@H]12 [Meropenem Trihydrate] ?
Given back: -0.25

Asked: What about CN(C)c1cc(NC(=O)CNC(C)(C)C)c(O)c2c1CC1CC3C(N(C)C)C(=O)C(C(N)=O)=C(O)C3(O)C(=O)C1=C2O (centres undefined) [Tigecycline] ?
Given back: -0.04

Asked: What about Cc1c(Nc2ncccc2C(=O)O)cccc1C(F)(F)F [Flunixin Meglumin] ?
Given back: 0

Asked: What about Cc1c(-c2ccc(O)cc2)n(Cc2ccc(OCCN3CCCCCC3)cc2)c2ccc(O)cc12 [Bazedoxifene Acetate] ?
Given back: -0.3

Asked: What about CCCOc1ccc2c(c1)CC[C@@H]1[C@@H]2CC[C@]2(C)[C@@H](OC)CC[C@@H]12 [Promestriene] ?
Given back: 0.24

Asked: What about O=c1ccc2cc(O)c(O)cc2o1 [Esculetin] ?
Given back: -0.38

Asked: What about CCOC(=O)CCC(=O)O[C@H]1[C@H](O[C@@H]2[C@@H](C)[C@H](O[C@H]3C[C@@](C)(OC)[C@@H](O)[C@H](C)O3)[C@@H](C)C(=O)O[C@H](CC)[C@@](C)(O)[C@H](O)[C@@H](C)C(=O)[C@H](C)C[C@@]2(C)O)O[C@H](C)C[C@@H]1N(C)C [Erythromycin Ethylsuccinate] ?
Given back: 0.83

Asked: What about CN1CCN2c3ncccc3Cc3ccccc3C2C1 (centres undefined) [Mirtazapine] ?
Given back: -0.87

Asked: What about CN1C(C(=O)Nc2ccccn2)=C(O)c2ccccc2S1(=O)=O [Piroxicam] ?
Given back: -0.92
